assay: Primary qHTS for inhibitors of nuclear receptor binding SET domain protein 2 (NSD2) in an isogenic RCH-ACV NSD2 p.E1099K mutant (9B) (AID 1645876); conditions: RCH-ACV (leukaemia line) NSD2 E1099K (9B) viability, CellTiter-Glo, 72 h; series mostly up to 44.9 µM; also: nearly all actives have a fitted effect of over 70% in size
Inconclusive results are not listed. Active and inactive are the calls of the source. Calls follow the shape of the dose curve; as a rule, active = well fitted inhibition curve with a large enough effect; inconclusive = small, poorly fitted or top-dose-only effect; inactive = flat fitted curve, though single readings scatter.
Outcome codes: active, inactive

Compound	Label Class
CC1(C)CCCC2(C)C(C(=O)O)=CCC12 (centres undefined)	inactive
C[C@H]1CC[C@@]2(OC1)O[C@H]1CC3C4CC[C@H]5C[C@@H](O)[C@H](O)C[C@]5(C)C4=CC(=O)[C@]3(C)[C@H]1[C@@H]2C (some centres undefined)	inactive
CC(=O)O[C@H]1CC(C)(C)CC2[C@@]13[C@H](O)C[C@]1(C)[C@@]2(CCC2[C@@]4(C)CC[C@H](O[C@@H]5OC[C@H](O[C@@H]6O[C@H](CO)[C@@H](O)[C@H](O)[C@H]6O[C@@H]6OC[C@@H](O)[C@H](O)[C@H]6O)[C@H](O)[C@H]5O[C@@H]5O[C@H](CO)[C@@H](O)[C@H](O)[C@H]5O)C(C)(C)C4CC[C@]21C)O[C@@H]3O (some centres undefined)	active
Cc1cc(C(=O)Nc2cccc(C(=O)Nc3cccc(C(F)(F)F)c3)c2)on1	inactive
